system: UACC-62; assay: NCI tumour cell line growth inhibition, 48 h
The source made the active and inactive calls. Rule as the data show it: active = GI50 up to about 1.1 µM and inactive = higher.
Tick one outcome: YES (active), NO (inactive)

{"columns": ["MOLECULE", "LABEL_CLASS"],
 "data": [
  ["NNc1cnn(-c2ccccc2)c(=O)c1Cl", "NO"]
]}

Here is the next item to consider.
I would be grateful if you could indicate the recorded call for CC(C)CCCC(C)[C@H]1CC[C@H]2NCCCC[C@]12C (stereo partly specified) .
NO

* * *

For each of the compounds below, state its GI50.
tested on: HCT-116; assay: NCI tumour cell line growth inhibition, 48 h
The source made the active and inactive calls. No stated cut-off is given here; in the data, active = GI50 up to about 1.1 µM and inactive = higher.

Recorded results for 10 compounds are shown here.
{"columns": ["COMPOUND", "TARGET_DESC", "RESULT"],
 "data": [
  ["Cn1c(N)cc(=O)nc1N", "HCT-116", "> 100 µM (inactive)"],
  ["CSc1ccc2c(cc1=O)C(NC(=O)c1cc(O)c(OC(=O)O)c(O)c1)CCc1cc(O)c(O)c(O)c1-2 (stereo unspecified)", "HCT-116", "16.5 µM (inactive)"],
  ["O=S1(=O)OCCOS(=O)(=O)C1Br", "HCT-116", "> 100 µM (inactive)"],
  ["COc1c2cc(C(C)(C)C)cc1Cc1cccc(c1OCc1cccc([N+](=O)[O-])c1)Cc1cc(C(C)(C)C)cc(c1OC)Cc1cccc(c1OCc1cccc([N+](=O)[O-])c1)Cc1cc(C(C)(C)C)cc(c1OC)Cc1cccc(c1OCc1cccc([N+](=O)[O-])c1)C2", "HCT-116", "> 50 µM (inactive)"],
  ["COc1cccc(C2c3cc4c(cc3OC(NNC(N)=O)C2C)OCO4)c1OC (stereo unspecified)", "HCT-116", "14.1 µM (inactive)"],
  ["CC(=O)Nc1ccc(-c2nnc(SCC(=O)Nc3cccc([N+](=O)[O-])c3)o2)cc1", "HCT-116", "14 µM (inactive)"],
  ["COc1ccc2c3c(c(C(=O)O)oc13)CCC2", "HCT-116", "> 100 µM (inactive)"],
  ["CC1(C)C2CCC3CC(CCC#N)CCC3C21C#N (stereo unspecified)", "HCT-116", "> 100 µM (inactive)"],
  ["CCN(CC)CCO/N=C1/C=C2CCC3C(CC[C@@]4(C)C3CC[C@]4(C)O)[C@@]2(C)CC1 (stereo partly specified)", "HCT-116", "4.21 µM (inactive)"],
  ["CCOC(=O)CC/C(=N/Nc1ccc(Cl)cc1[N+](=O)[O-])C(=O)OCC", "HCT-116", "> 100 µM (inactive)"]
]}

// input: 8 compounds below; output: GI50 for each
1. COc1cc(O)c2c(=O)c(O)c(-c3ccc(O)c(O)c3)oc2c1 [RHAMNETIN]
2. O=[N+]([O-])c1ccccc1S(=O)(=O)c1ccccc1
3. COc1ccc(CCNC2=CC(=O)c3ncccc3C2=O)cc1OC
4. CC1C2(C)OCC(C#N)(C(=N)O2)C1(C#N)C#N (stereo unspecified)
5. CC(=O)CC[N+](C)(C)C
6. O=C(c1ccc(Cl)cc1)N(C(=S)N1CCN(c2ccccc2)CC1)c1ccccc1
7. O=C(CCc1cc(O)cc(O)c1)NCCc1cc(OCc2ccccc2)cc(OCc2ccccc2)c1
8. COc1ccc([C@H]2CC(=O)C[C@H](c3ccc(OC)cc3)C23C(=O)c2ccccc2C3=O)cc1

1: 14.6 µM (inactive); 2: > 100 µM (inactive); 3: 2.51 µM (inactive); 4: 18.3 µM (inactive); 5: 25.2 µM (inactive); 6: > 100 µM (inactive); 7: 12.9 µM (inactive); 8: 4.46 µM (inactive)

Here are 3 compounds. What values of GI50 were reported for them?
1. COc1ccc(/C=C(/C#N)C(N)=O)c(OC)c1
2. CC(=O)N/C(=C\c1ccc(/C=C(\NC(C)=O)c2nc3cc(Cl)ccc3[nH]2)cc1)c1nc2ccccc2[nH]1
3. C[N+]1(C)C(c2ccccc2)C(=O)O[B@-]1(F)c1ccccc1 (stereo partly specified)

64 µM (inactive)
> 100 µM (inactive)
> 100 µM (inactive)
